Test: pH-solubility profile of amorphous Letermovir (BCS approach)
Format: physicochemical
Conditions: standard buffer solutions, aqueous buffer, thermodynamic from solid; pH 2.9 (pKa1 − 1); 37°C±1°C, standard buffer, stirring 24 hours; read-out: Letermovir solubility
quantity kind: solubility at 24 h (µg/mL)
Answers are plain numbers, in µg/mL.

In: For the molecule COc1cccc(N2CCN(C3=Nc4c(F)cccc4[C@H](CC(=O)O)N3c3cc(C(F)(F)F)ccc3OC)CC2)c1 , report solubility at 24 h.
Out: 800

###

Field: Specific Surface Area (SSA), m^2/g; BET value on average. Provide a value for each of the compounds that follow.
Test: BET specific surface area analysis
Assay type: physicochemical
Conditions: nitrogen adsorption at 77 K
Answer by giving the amount and then stating its unit.

Past entries and their recorded results:
compound | result
COc1cccc(N2CCN(C3=Nc4c(F)cccc4[C@H](CC(=O)O)N3c3cc(C(F)(F)F)ccc3OC)CC2)c1 [Batch 40479463] | 1.45 m^2/g
COc1cccc(N2CCN(C3=Nc4c(F)cccc4[C@H](CC(=O)O)N3c3cc(C(F)(F)F)ccc3OC)CC2)c1 [Batch 40483516] | 1.28 m^2/g
COc1cccc(N2CCN(C3=Nc4c(F)cccc4[C@H](CC(=O)O)N3c3cc(C(F)(F)F)ccc3OC)CC2)c1 [Batch 40475297] | 1.25 m^2/g
COc1cccc(N2CCN(C3=Nc4c(F)cccc4[C@H](CC(=O)O)N3c3cc(C(F)(F)F)ccc3OC)CC2)c1 [Batch 40479201] | 1.97 m^2/g
COc1cccc(N2CCN(C3=Nc4c(F)cccc4[C@H](CC(=O)O)N3c3cc(C(F)(F)F)ccc3OC)CC2)c1 [Batch 40479248] | 1.45 m^2/g
COc1cccc(N2CCN(C3=Nc4c(F)cccc4[C@H](CC(=O)O)N3c3cc(C(F)(F)F)ccc3OC)CC2)c1 [Batch 40479434] | 1.48 m^2/g
COc1cccc(N2CCN(C3=Nc4c(F)cccc4[C@H](CC(=O)O)N3c3cc(C(F)(F)F)ccc3OC)CC2)c1 [Batch 40479189] | 1.26 m^2/g
COc1cccc(N2CCN(C3=Nc4c(F)cccc4[C@H](CC(=O)O)N3c3cc(C(F)(F)F)ccc3OC)CC2)c1 [Batch 40479326] | 1.76 m^2/g

In: Return reported Specific Surface Area (SSA), m^2/g; BET value on average. Input compound: COc1cccc(N2CCN(C3=Nc4c(F)cccc4[C@H](CC(=O)O)N3c3cc(C(F)(F)F)ccc3OC)CC2)c1 [Batch 40479202]
Out: 1.69 m^2/g
